# assayedTarget: Prostaglandin G/H synthase 1 (Homo sapiens); further: assay procedure not described here
# Sequence (P23219 whole entry): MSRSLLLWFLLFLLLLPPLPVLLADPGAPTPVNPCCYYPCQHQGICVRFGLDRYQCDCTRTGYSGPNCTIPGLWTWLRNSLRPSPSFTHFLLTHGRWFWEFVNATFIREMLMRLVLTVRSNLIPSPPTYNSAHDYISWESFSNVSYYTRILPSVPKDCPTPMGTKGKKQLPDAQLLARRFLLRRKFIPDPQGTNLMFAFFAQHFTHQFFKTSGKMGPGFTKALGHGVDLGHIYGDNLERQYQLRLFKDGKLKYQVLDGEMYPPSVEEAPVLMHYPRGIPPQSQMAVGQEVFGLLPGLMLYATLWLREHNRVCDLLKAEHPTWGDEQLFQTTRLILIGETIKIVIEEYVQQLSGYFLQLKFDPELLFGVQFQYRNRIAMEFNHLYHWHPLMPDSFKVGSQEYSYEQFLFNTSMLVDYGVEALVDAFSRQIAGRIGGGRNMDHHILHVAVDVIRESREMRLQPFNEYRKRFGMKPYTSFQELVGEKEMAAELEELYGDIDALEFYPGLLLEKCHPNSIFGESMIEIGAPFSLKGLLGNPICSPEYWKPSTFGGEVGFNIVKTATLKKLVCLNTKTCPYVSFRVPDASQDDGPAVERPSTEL
# Assay type: functional
outcomeMeasure: AC50

AC50 in this record for `N/N=c1/cc2c(n[nH]1)CCN(C(=O)c1ccccc1)C2` : > 30 µM

AC50 in this record for `CO/N=C(\C(=O)N[C@@H]1C(=O)N2C(C(=O)OCOC(=O)C(C)(C)C)=C(C)CS[C@H]12)c1csc(N)n1` : 23.2 µM

AC50 in this record for `C#C[C@]1(O)CC[C@H]2[C@@H]3CCc4cc(O)ccc4[C@H]3CC[C@@]21C` : > 30 µM

AC50 in this record for `CC/C=C\C/C=C\C/C=C\C/C=C\C/C=C\CCCC(=O)O` : > 10 µM

AC50 in this record for `Nc1ccc(C(=O)O)cc1` : 4.69 µM

AC50 in this record for `Cn1cc[nH]c1=S` : 0.541 µM

AC50 in this record for `Cc1nc(-c2ccc(OCC(C)C)c(C#N)c2)sc1C(=O)O` : > 30 µM

AC50 in this record for CN1C(=O)N(C)C2C1N(C)C(=O)N2C (stereo not given) : > 30 µM

AC50 in this record for O=C(Nc1ccccc1)OCC(CN1CCCCC1)OC(=O)Nc1ccccc1 (stereo not given) : > 30 µM

AC50 in this record for `CCO[C@@H](Cc1ccc(OCCn2c(C)ccc2-c2ccc(SC)cc2)cc1)C(=O)O` : 9.49 µM

AC50 in this record for `C[C@@H]1C[C@H]2[C@@H]3CCC4=CC(=O)C=C[C@]4(C)[C@@]3(F)[C@@H](O)C[C@]2(C)[C@H]1C(=O)CO` : > 30 µM

AC50 in this record for `Cc1cc(O)cc(C)c1Cl` : > 30 µM

AC50 in this record for `O=C(Cn1ccnc1[N+](=O)[O-])NCc1ccccc1` : > 30 µM

AC50 in this record for CC(N/C(=N\C#N)Nc1ccncc1)C(C)(C)C (stereo not given) [PINACIDIL ANHYDROUS] : > 30 µM

AC50 in this record for O=C(COc1ccc(Cl)cc1)N1CCN(Cc2ccc3c(c2)OCO3)CC1 [FIPEXIDE] : > 30 µM

AC50 in this record for `CCOc1ccc(/C=C2\NCCc3cc(OCC)c(OCC)cc32)cc1OCC` : 9.33 µM

AC50 in this record for `CN(C)c1ccc(C(=C2C=CC(=[N+](C)C)C=C2)c2ccc(N(C)C)cc2)cc1` : 11.8 µM

AC50 in this record for `O=C(c1ccc(F)c(F)c1Nc1ccc(I)cc1F)N1CC(O)([C@@H]2CCCCN2)C1` : > 30 µM

AC50 in this record for `Oc1cccc2cccnc12` : > 30 µM

AC50 in this record for `CCO/N=C(\C(=O)N[C@@H]1C(=O)N2C(C(=O)[O-])=C(Sc3nc(-c4cc[n+](C)cc4)cs3)CS[C@H]12)c1nsc(N)n1` : > 30 µM

###

Would you mind telling me the reported AC50 of each entry?
Write the value in µM as a bare number.

Cc1c(-c2ccccc2)oc2c(C(=O)OCCN3CCCCC3)cccc2c1=O [FLAVOXATE] on D(3) dopamine receptor (Homo sapiens, UniProt P35462) gives AC50 = 0.88

CN1CCC2=C(C1)c1ccccc1Cc1ccccc12 [SETIPTILINE] on D(3) dopamine receptor (Homo sapiens, UniProt P35462) gives AC50 = 0.543

CCC(=O)c1c(O)cc(O)cc1O [FLOPROPIONE] on D(3) dopamine receptor (Homo sapiens, UniProt P35462) gives AC50 = 12.1

CCO[C@@H](Cc1ccc(OCCn2c(C)ccc2-c2ccc(SC)cc2)cc1)C(=O)O [SAROGLITAZAR] on D(3) dopamine receptor (Homo sapiens, UniProt P35462) gives AC50 = 22.2

###

Hi! I'm sharing some AC50 results obtained with Muscarinic acetylcholine receptor M2 (Homo sapiens).
Sequence (P08172 whole entry): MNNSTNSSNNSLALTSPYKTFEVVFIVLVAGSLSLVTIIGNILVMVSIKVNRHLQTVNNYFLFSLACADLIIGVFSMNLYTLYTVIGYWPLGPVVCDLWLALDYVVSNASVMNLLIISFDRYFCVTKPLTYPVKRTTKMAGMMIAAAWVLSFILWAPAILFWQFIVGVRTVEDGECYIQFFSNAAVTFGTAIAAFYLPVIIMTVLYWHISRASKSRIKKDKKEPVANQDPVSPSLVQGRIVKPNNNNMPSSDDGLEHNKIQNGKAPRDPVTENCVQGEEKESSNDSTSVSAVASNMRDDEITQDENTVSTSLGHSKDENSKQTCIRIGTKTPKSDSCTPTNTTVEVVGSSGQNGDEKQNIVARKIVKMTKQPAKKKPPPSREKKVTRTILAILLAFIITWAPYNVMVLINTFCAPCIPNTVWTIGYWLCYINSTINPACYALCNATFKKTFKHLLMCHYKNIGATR

AC50 in this record for `C1N2CN3CN1CN(C2)C3` : > 30 µM

AC50 in this record for CC(=O)Oc1c(C)cc(OCC(O)CNC(C)C)c(C)c1C (stereo not drawn) : > 30 µM

AC50 in this record for `CC(C)OC(=O)[C@H](C)N[P@](=O)(OC[C@H]1O[C@@H](n2ccc(=O)[nH]c2=O)[C@](C)(F)[C@@H]1O)Oc1ccccc1` : > 30 µM

###

Hi! I'm sharing some AC50 results obtained with Sodium-dependent dopamine transporter (Homo sapiens, UniProt Q01959).
Sequence (Q01959 whole entry): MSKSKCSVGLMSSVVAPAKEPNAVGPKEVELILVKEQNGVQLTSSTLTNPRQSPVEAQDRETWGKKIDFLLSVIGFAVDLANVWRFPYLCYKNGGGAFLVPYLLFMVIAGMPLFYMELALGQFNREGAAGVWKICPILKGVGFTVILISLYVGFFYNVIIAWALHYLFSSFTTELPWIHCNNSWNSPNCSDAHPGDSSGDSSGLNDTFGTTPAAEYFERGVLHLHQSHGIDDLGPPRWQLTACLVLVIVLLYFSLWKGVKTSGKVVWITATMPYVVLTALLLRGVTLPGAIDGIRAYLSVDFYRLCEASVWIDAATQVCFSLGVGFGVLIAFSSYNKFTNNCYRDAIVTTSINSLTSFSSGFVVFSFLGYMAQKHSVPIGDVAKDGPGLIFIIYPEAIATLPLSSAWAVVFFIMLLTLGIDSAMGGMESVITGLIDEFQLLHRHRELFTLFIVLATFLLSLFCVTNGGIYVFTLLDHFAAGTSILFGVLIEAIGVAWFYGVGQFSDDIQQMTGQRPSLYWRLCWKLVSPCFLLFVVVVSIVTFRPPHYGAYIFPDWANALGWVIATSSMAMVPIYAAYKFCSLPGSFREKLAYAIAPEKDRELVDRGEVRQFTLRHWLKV

`O=C1c2c(O)c(=O)ccn2N([C@@H]2c3ccccc3SCc3c2ccc(F)c3F)[C@@H]2COCCN12` on Sodium-dependent dopamine transporter (Homo sapiens, UniProt Q01959) gives AC50 = > 30 µM

COc1ccc2c(c1)OC(C)(C)C(c1ccccc1)C2c1ccc(OCCN2CCCC2)cc1 (centres undefined) on Sodium-dependent dopamine transporter (Homo sapiens, UniProt Q01959) gives AC50 = 3 µM

CN1CCCC(CN2c3ccccc3Sc3ccccc32)C1 (centres undefined) on Sodium-dependent dopamine transporter (Homo sapiens, UniProt Q01959) gives AC50 = 27.7 µM

`CCC(=O)c1c(O)cc(O)cc1O` on Sodium-dependent dopamine transporter (Homo sapiens, UniProt Q01959) gives AC50 = > 30 µM

CC(C(=O)O)c1ccc2c(c1)Cc1cccnc1O2 (centres undefined) on Sodium-dependent dopamine transporter (Homo sapiens, UniProt Q01959) gives AC50 = > 30 µM

`Cc1ccc(O)c2ncccc12` on Sodium-dependent dopamine transporter (Homo sapiens, UniProt Q01959) gives AC50 = > 30 µM

`CCOC(=O)c1ccc(O)cc1` on Sodium-dependent dopamine transporter (Homo sapiens, UniProt Q01959) gives AC50 = > 30 µM

`COc1cc(Nc2c(C#N)cnc3cc(OCCCN4CCN(C)CC4)c(OC)cc23)c(Cl)cc1Cl` on Sodium-dependent dopamine transporter (Homo sapiens, UniProt Q01959) gives AC50 = 7.55 µM

`CN(C)CCCN1c2ccccc2CCc2ccc(Cl)cc21` on Sodium-dependent dopamine transporter (Homo sapiens, UniProt Q01959) gives AC50 = 4.82 µM

`CCOc1ccc(/C=C2\NCCc3cc(OCC)c(OCC)cc32)cc1OCC` on Sodium-dependent dopamine transporter (Homo sapiens, UniProt Q01959) gives AC50 = > 30 µM

`CN(C)C(=O)Oc1ccc[n+](C)c1` on Sodium-dependent dopamine transporter (Homo sapiens, UniProt Q01959) gives AC50 = > 30 µM

`Oc1ncnc2[nH]ncc12` on Sodium-dependent dopamine transporter (Homo sapiens, UniProt Q01959) gives AC50 = > 30 µM

`CC(C)OC(=O)[C@H](C)N[P@](=O)(OC[C@H]1O[C@@H](n2ccc(=O)[nH]c2=O)[C@](C)(F)[C@@H]1O)Oc1ccccc1` on Sodium-dependent dopamine transporter (Homo sapiens, UniProt Q01959) gives AC50 = > 30 µM

CCC(Cc1c(I)cc(I)c(N)c1I)C(=O)O (centres undefined) on Sodium-dependent dopamine transporter (Homo sapiens, UniProt Q01959) gives AC50 = > 30 µM

`CC(C)=CCC1C(=O)N(c2ccccc2)N(c2ccccc2)C1=O` on Sodium-dependent dopamine transporter (Homo sapiens, UniProt Q01959) gives AC50 = > 30 µM

NC(=O)c1cnccn1 [PYRAZINAMIDE] on Sodium-dependent dopamine transporter (Homo sapiens, UniProt Q01959) gives AC50 = > 30 µM

`CO/N=C(\C(=O)N[C@@H]1C(=O)N2C(C(=O)OCOC(=O)C(C)(C)C)=C(C)CS[C@H]12)c1csc(N)n1` on Sodium-dependent dopamine transporter (Homo sapiens, UniProt Q01959) gives AC50 = > 30 µM

`CS(=O)(=O)c1ccc([C@@H](O)[C@@H](CO)NC(=O)C(Cl)Cl)cc1` on Sodium-dependent dopamine transporter (Homo sapiens, UniProt Q01959) gives AC50 = > 30 µM

`O=C1CN=C(c2ccccc2)c2c(sc3c2CCCC3)N1` on Sodium-dependent dopamine transporter (Homo sapiens, UniProt Q01959) gives AC50 = > 30 µM

`Nc1nc2c(ncn2CCC(CO)CO)c(=O)[nH]1` on Sodium-dependent dopamine transporter (Homo sapiens, UniProt Q01959) gives AC50 = > 30 µM

CC(C)C(=O)Nc1ccc([N+](=O)[O-])c(C(F)(F)F)c1 [FLUTAMIDE] on Sodium-dependent dopamine transporter (Homo sapiens, UniProt Q01959) gives AC50 = > 30 µM

`O=[N+]([O-])c1cncn1CCN1CCOCC1` on Sodium-dependent dopamine transporter (Homo sapiens, UniProt Q01959) gives AC50 = > 30 µM

`Cn1cc[nH]c1=S` on Sodium-dependent dopamine transporter (Homo sapiens, UniProt Q01959) gives AC50 = > 30 µM

O=C(NC1CCN(CCCCC2(C(=O)NCC(F)(F)F)c3ccccc3-c3ccccc32)CC1)c1ccccc1-c1ccc(C(F)(F)F)cc1 [LOMITAPIDE] on Sodium-dependent dopamine transporter (Homo sapiens, UniProt Q01959) gives AC50 = 0.239 µM

`C#C[C@]1(O)CC[C@H]2[C@@H]3CCC4=CC(=O)CC[C@@H]4[C@H]3CC[C@@]21CC` on Sodium-dependent dopamine transporter (Homo sapiens, UniProt Q01959) gives AC50 = > 30 µM

CN(CCOc1ccc(NS(C)(=O)=O)cc1)CCc1ccc(NS(C)(=O)=O)cc1 [DOFETILIDE] on Sodium-dependent dopamine transporter (Homo sapiens, UniProt Q01959) gives AC50 = > 30 µM

CCC(=O)O[C@H]1[C@H](O[C@@H]2[C@@H](C)[C@H](O[C@H]3C[C@@](C)(OC)[C@@H](O)[C@H](C)O3)[C@@H](C)C(=O)O[C@H](CC)[C@@](C)(O)[C@H](O)[C@@H](C)C(=O)[C@H](C)C[C@@]2(C)O)O[C@H](C)C[C@@H]1N(C)C [ERYTHROMYCIN PROPIONATE] on Sodium-dependent dopamine transporter (Homo sapiens, UniProt Q01959) gives AC50 = 29.1 µM

CC(=O)OC(C)C[N+](C)(C)C (centres undefined) on Sodium-dependent dopamine transporter (Homo sapiens, UniProt Q01959) gives AC50 = > 30 µM

NS(=O)(=O)c1cc2c(cc1Cl)NC(CC1CCCC1)NS2(=O)=O (centres undefined) [CYCLOPENTHIAZIDE] on Sodium-dependent dopamine transporter (Homo sapiens, UniProt Q01959) gives AC50 = > 30 µM
